- assayName: Radioactivity distribution in mouse body after intravenous administration of radioiodine labeled forms
- details: mouse, intravenous administration, liver, 2 min after administration; mean (SD) of 3 to 5 mice
readout: Distribution of radioactivity, Liver

Use these answered entries as a reference point.
Tell me the measured Distribution of radioactivity, Liver of CN(C)c1ccc(-c2cc(=O)c3cc([125I])ccc3o2)cc1 [[125I]Compound 11] , please.
15.41 (0.98) % ID/g

Tell me the measured Distribution of radioactivity, Liver of CN(C)c1ccc(C=Cc2cc(=O)c3cc([125I])ccc3o2)cc1 [[125I]Compound 48] , please.
20.56 (3.98) % ID/g

Tell me the measured Distribution of radioactivity, Liver of CNc1ccc(C=Cc2cc(=O)c3cc([125I])ccc3o2)cc1 [[125I]Compound 47] , please.
14.55 (2.64) % ID/g

For each of the items listed, what is its Distribution of radioactivity, Liver?
1. Nc1ccc(C=Cc2cc(=O)c3cc([125I])ccc3o2)cc1 [[125I]Compound 46]
2. COc1cc(/C=C/C(=O)c2cccc([125I])c2)ccc1O [[125I]Compound 31]
3. COc1ccc(-c2cc(=O)c3cc([125I])ccc3o2)cc1 [[125I]Compound 19]

13.23 (1.65) % ID/g
15.71 (1.27) % ID/g
8.96 (1.48) % ID/g

For each of the items listed, what is its Distribution of radioactivity, Liver?
1. O=c1cc(-c2ccc(O)cc2)oc2ccc([125I])cc12 [[125I]Compound 20]
2. CNc1ccc(-c2cc(=O)c3cc([125I])ccc3o2)cc1 [[125I]Compound 10]

1: 9.77 (1.89) % ID/g; 2: 16.28 (0.90) % ID/g

----------
Exercise: for every item that follows, state its recorded Distribution of radioactivity, Brain.
- assayName: Radioactivity distribution in mouse body after intravenous administration of radioiodine labeled forms
- details: mouse, intravenous administration, brain, 30 min after administration; mean (SD) of 3 to 5 mice

For each of the items listed, what is its Distribution of radioactivity, Brain?
1. CN(C)c1ccc(C=Cc2cc(=O)c3cc([125I])ccc3o2)cc1 [[125I]Compound 48]
2. CNc1ccc(C=Cc2cc(=O)c3cc([125I])ccc3o2)cc1 [[125I]Compound 47]

1. 1.02 (0.23) % ID/g
2. 1.86 (0.30) % ID/g

For each of the items listed, what is its Distribution of radioactivity, Brain?
1. CNc1ccc(-c2cc(=O)c3cc([125I])ccc3o2)cc1 [[125I]Compound 10]
2. O=c1cc(-c2ccc(O)cc2)oc2ccc([125I])cc12 [[125I]Compound 20]
3. CN(C)c1ccc(-c2cc(=O)c3cc([125I])ccc3o2)cc1 [[125I]Compound 11]
4. COc1ccc(-c2cc(=O)c3cc([125I])ccc3o2)cc1 [[125I]Compound 19]

["1.84 (0.12) % ID/g", "0.52 (0.03) % ID/g", "1.89 (0.21) % ID/g", "0.51 (0.07) % ID/g"]

For each of the items listed, what is its Distribution of radioactivity, Brain?
1. Nc1ccc(C=Cc2cc(=O)c3cc([125I])ccc3o2)cc1 [[125I]Compound 46]
2. COc1cc(/C=C/C(=O)c2cccc([125I])c2)ccc1O [[125I]Compound 31]

2.78 (0.72) % ID/g
0.40 (0.11) % ID/g

----------
Exercise: for every item that follows, state its recorded Distribution of radioactivity, Liver.
- assayName: Radioactivity distribution in mouse body after intravenous administration of radioiodine labeled forms
- details: mouse, intravenous administration, liver, 60 min after administration; mean (SD) of 3 to 5 mice

For each of the items listed, what is its Distribution of radioactivity, Liver?
1. CNc1ccc(C=Cc2cc(=O)c3cc([125I])ccc3o2)cc1 [[125I]Compound 47]
2. CN(C)c1ccc(C=Cc2cc(=O)c3cc([125I])ccc3o2)cc1 [[125I]Compound 48]
3. CNc1ccc(-c2cc(=O)c3cc([125I])ccc3o2)cc1 [[125I]Compound 10]
4. O=c1cc(-c2ccc(O)cc2)oc2ccc([125I])cc12 [[125I]Compound 20]
5. COc1cc(/C=C/C(=O)c2cccc([125I])c2)ccc1O [[125I]Compound 31]
6. COc1ccc(-c2cc(=O)c3cc([125I])ccc3o2)cc1 [[125I]Compound 19]
7. CN(C)c1ccc(-c2cc(=O)c3cc([125I])ccc3o2)cc1 [[125I]Compound 11]
8. Nc1ccc(C=Cc2cc(=O)c3cc([125I])ccc3o2)cc1 [[125I]Compound 46]

7.82 (0.94) % ID/g
8.79 (1.80) % ID/g
15.14 (0.89) % ID/g
4.78 (1.09) % ID/g
4.05 (0.61) % ID/g
1.88 (0.61) % ID/g
12.40 (2.38) % ID/g
8.16 (1.33) % ID/g

----------
Exercise: for every item that follows, state its recorded Distribution of radioactivity, Heart.
- assayName: Radioactivity distribution in mouse body after intravenous administration of radioiodine labeled forms
- details: mouse, intravenous administration, heart, 30 min after administration; mean (SD) of 3 to 5 mice

Use these answered entries as a reference point.
Tell me the measured Distribution of radioactivity, Heart of CNc1ccc(C=Cc2cc(=O)c3cc([125I])ccc3o2)cc1 [[125I]Compound 47] , please.
2.09 (0.39) % ID/g

Tell me the measured Distribution of radioactivity, Heart of COc1cc(/C=C/C(=O)c2cccc([125I])c2)ccc1O [[125I]Compound 31] , please.
1.44 (0.34) % ID/g

Tell me the measured Distribution of radioactivity, Heart of CN(C)c1ccc(C=Cc2cc(=O)c3cc([125I])ccc3o2)cc1 [[125I]Compound 48] , please.
2.36 (0.51) % ID/g

Tell me the measured Distribution of radioactivity, Heart of COc1ccc(-c2cc(=O)c3cc([125I])ccc3o2)cc1 [[125I]Compound 19] , please.
0.84 (0.14) % ID/g

Tell me the measured Distribution of radioactivity, Heart of CNc1ccc(-c2cc(=O)c3cc([125I])ccc3o2)cc1 [[125I]Compound 10] , please.
1.67 (0.14) % ID/g

For each of the items listed, what is its Distribution of radioactivity, Heart?
1. Nc1ccc(C=Cc2cc(=O)c3cc([125I])ccc3o2)cc1 [[125I]Compound 46]
2. O=c1cc(-c2ccc(O)cc2)oc2ccc([125I])cc12 [[125I]Compound 20]
3. CN(C)c1ccc(-c2cc(=O)c3cc([125I])ccc3o2)cc1 [[125I]Compound 11]

1. 2.43 (0.70) % ID/g
2. 0.53 (0.04) % ID/g
3. 1.69 (0.06) % ID/g

----------
- assayName: Radioactivity distribution in mouse body after intravenous administration of radioiodine labeled forms
- details: mouse, intravenous administration, liver, 10 min after administration; mean (SD) of 3 to 5 mice
readout: Distribution of radioactivity, Liver

Tell me the measured Distribution of radioactivity, Liver of Nc1ccc(C=Cc2cc(=O)c3cc([125I])ccc3o2)cc1 [[125I]Compound 46] , please.
14.49 (1.10) % ID/g

Tell me the measured Distribution of radioactivity, Liver of CN(C)c1ccc(-c2cc(=O)c3cc([125I])ccc3o2)cc1 [[125I]Compound 11] , please.
21.85 (2.14) % ID/g

Tell me the measured Distribution of radioactivity, Liver of CNc1ccc(C=Cc2cc(=O)c3cc([125I])ccc3o2)cc1 [[125I]Compound 47] , please.
14.41 (2.52) % ID/g

Tell me the measured Distribution of radioactivity, Liver of COc1ccc(-c2cc(=O)c3cc([125I])ccc3o2)cc1 [[125I]Compound 19] , please.
9.01 (0.97) % ID/g

Tell me the measured Distribution of radioactivity, Liver of CNc1ccc(-c2cc(=O)c3cc([125I])ccc3o2)cc1 [[125I]Compound 10] , please.
25.28 (0.31) % ID/g

Tell me the measured Distribution of radioactivity, Liver of O=c1cc(-c2ccc(O)cc2)oc2ccc([125I])cc12 [[125I]Compound 20] , please.
8.24 (0.50) % ID/g

Tell me the measured Distribution of radioactivity, Liver of CN(C)c1ccc(C=Cc2cc(=O)c3cc([125I])ccc3o2)cc1 [[125I]Compound 48] , please.
15.09 (2.63) % ID/g

Shifting focus to the compound that follows.
Tell me the measured Distribution of radioactivity, Liver of COc1cc(/C=C/C(=O)c2cccc([125I])c2)ccc1O [[125I]Compound 31] , please.
18.55 (2.68) % ID/g

----------
- assayName: Radioactivity distribution in mouse body after intravenous administration of radioiodine labeled forms
- details: mouse, intravenous administration, spleen, 30 min after administration; mean (SD) of 3 to 5 mice
- Procedure: Thereafter, 100 μl (0.5 to 1 μCi) of each labeled form was intravenously administered to each group consisting of three to five 5-week-old ddY male mice (25 to 30 g). 2, 10, 30, and 60 minutes after the intravenous administration, such mice were decapitated, and blood was collected. Thereafter, organs were excised, and the weight and radioactivity thereof were then measured.
Exercise: for every item that follows, state its recorded Distribution of radioactivity, Spleen.

Tell me the measured Distribution of radioactivity, Spleen of COc1cc(/C=C/C(=O)c2cccc([125I])c2)ccc1O [[125I]Compound 31] , please.
1.03 (0.04) % ID/g

For each of the items listed, what is its Distribution of radioactivity, Spleen?
1. CNc1ccc(-c2cc(=O)c3cc([125I])ccc3o2)cc1 [[125I]Compound 10]
2. CN(C)c1ccc(-c2cc(=O)c3cc([125I])ccc3o2)cc1 [[125I]Compound 11]

1. 1.76 (0.23) % ID/g
2. 1.58 (0.31) % ID/g
